Consider the following compounds; for each one, report its IC50.
- Target of assay: mouse VISTA (mVISTA) (Mus musculus, UniProt Q9D659)
- Construct: expressed in transfected cells; host or cells: Human embryonic kidney 293T cells
- Sequence (Q9D659 33-308): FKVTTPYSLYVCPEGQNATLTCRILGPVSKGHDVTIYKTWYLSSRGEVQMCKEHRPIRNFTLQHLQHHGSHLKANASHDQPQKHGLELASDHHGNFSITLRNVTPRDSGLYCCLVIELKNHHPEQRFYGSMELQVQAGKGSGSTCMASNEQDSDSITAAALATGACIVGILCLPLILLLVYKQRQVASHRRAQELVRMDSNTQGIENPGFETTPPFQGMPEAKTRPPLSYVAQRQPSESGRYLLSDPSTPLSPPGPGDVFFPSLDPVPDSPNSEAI
- Assay details: Cell-Based Binding High-Content Assay For mVISTA (HC CBA mVISTA)
- Settings: cell-based binding high-content assay, mVISTA; the 16th table; read-out: HC CBA mVISTA IC50
Positions of bridges follow the written chain, without caps; N, C: chain ends. Non-standard residues stand in square brackets, D forms with d. Residues, ends and D or L forms follow the SMILES beside them. 2Nal = N[C@@H](Cc1ccc2ccccc2c1)C(=O)O; Cit = NC(=O)NCCC[C@H](N)C(=O)O; Ahp(2) = CCCCC[C@H](N)C(=O)O; NHexGly = CCCCCCNCC(=O)O; Nle = CCCC[C@H](N)C(=O)O
Answers are plain numbers, in nM.

| Compound | Units of measure | Obs value |
| --- | --- | --- |
| CCCCCCN1CC(=O)N[C@@H](Cc2ccc(O)cc2)C(=O)N[C@@H](CC(C)C)C(=O)N[C@@H](CC(=O)O)C(=O)N[C@@H](CCCNC(=N)N)C(=O)N[C@@H](CC(C)C)C(=O)N[C@@H](CCCCC)C(=O)N2CCC[C@H]2C(=O)N[C@@H](C(C)C)C(=O)N[C@@H](CC(=O)O)C(=O)N[C@H](C(=O)NCC(=O)O)CSCC(=O)N[C@@H](Cc2ccc3ccccc3c2)C(=O)N[C@@H](Cc2ccc(O)cc2)C(=O)N[C@@H](CC(=O)O)C1=O [Ex 1278] ({CH2CO}-[2Nal]YD[NHexGly]YLDRL[Ahp(2)]PVDCG-OH; thioether N-14) | nM | 24 |

Here is another compound to look at.
Return reported IC50; argument: CCCCCCN1CC(=O)N[C@@H](Cc2ccc(O)cc2)C(=O)N[C@@H](CCCC)C(=O)N[C@@H](CC(N)=O)C(=O)N[C@@H](CCCNC(N)=O)C(=O)N[C@@H](CC(C)C)C(=O)N[C@@H](CCCCC)C(=O)N2CCC[C@H]2C(=O)N[C@@H](C(C)C)C(=O)N[C@@H](CC(=O)O)C(=O)N[C@H](C(=O)NCC(=O)O)CSCC(=O)N[C@@H](Cc2ccc3ccccc3c2)C(=O)N[C@@H](Cc2ccc(O)cc2)C(=O)N[C@@H](CC(=O)O)C1=O [Ex 1300] ({CH2CO}-[2Nal]YD[NHexGly]Y[Nle]N[Cit]L[Ahp(2)]PVDCG-OH; thioether N-14)
4.9
